# measurementTarget: T1, human IL-23 (human, UniProt Q9NPF7 20-189; P29460 23-328)
# T1 sequence (looked up) 1: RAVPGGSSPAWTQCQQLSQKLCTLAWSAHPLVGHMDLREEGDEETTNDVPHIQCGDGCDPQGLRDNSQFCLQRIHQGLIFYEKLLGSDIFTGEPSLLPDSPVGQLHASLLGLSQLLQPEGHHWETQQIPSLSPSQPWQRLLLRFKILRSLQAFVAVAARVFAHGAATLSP
# T1 sequence (looked up) 2: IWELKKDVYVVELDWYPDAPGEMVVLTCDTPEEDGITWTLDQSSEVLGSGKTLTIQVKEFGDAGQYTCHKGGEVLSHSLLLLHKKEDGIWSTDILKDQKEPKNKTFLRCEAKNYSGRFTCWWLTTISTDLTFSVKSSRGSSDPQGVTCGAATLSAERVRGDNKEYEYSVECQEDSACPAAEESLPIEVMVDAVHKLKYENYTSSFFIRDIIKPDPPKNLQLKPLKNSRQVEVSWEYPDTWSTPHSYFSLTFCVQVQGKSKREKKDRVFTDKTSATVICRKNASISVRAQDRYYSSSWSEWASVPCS
# measurementDescription: cell-based or functional assay
Mark Not satisfied for PBMNC pSTAT3 IC50 (nM) values under 0.2 nM, and Satisfied for everything at or above.

Lookup: Is it the case that 1571G06 (designed binder, captured by anti-His mAb) MGVSDVPRDLEVVAATPTSLLISWGHYPLHLRYYRITYGETGGNSPVQEFTVPRTKYTATISGLKPGVDYTITVYAVTYYKEADYSQIPISINYRTEIDKPSQHHHHHH has PBMNC pSTAT3 IC50 (nM) reaching or exceeding 0.2 nM?
Found: Satisfied

Lookup: Is it the case that 1550 E06 (designed binder, captured by anti-His mAb) MGVSDVPRDLEVVAATPTSLLISWGHYPMHVRYYRITYGETGGNSPVQEFTVPPPRHTATISGLKPGVDYTITVYAVTYYAQENYKEIPISINYRTEIDKPSQHHHHHH has PBMNC pSTAT3 IC50 (nM) reaching or exceeding 0.2 nM?
Found: Satisfied

Lookup: Is it the case that 1572G06 (designed binder, captured by anti-His mAb) MGVSDVPRDLEVVAATPTSLLISWGHYPLHVRYYRITYGETGGNSPVQEFTVPRYKYTATISGLKPGVDYTITVYAVTYYAQENYKEIPISINYRTEIDKPSQHHHHHH has PBMNC pSTAT3 IC50 (nM) reaching or exceeding 0.2 nM?
Found: Satisfied

Lookup: Is it the case that 1571G04 (designed binder, captured by anti-His mAb) MGVSDVPRDLEVVAATPTSLLISWGHYPLHVRYYRITYGETGGNSPVQEFTVPPRSHTATISGLKPGVDYTITVYAVTYYAQENYKEIPISINYRTEIDKPSQHHHHHH has PBMNC pSTAT3 IC50 (nM) reaching or exceeding 0.2 nM?
Found: Satisfied

Lookup: Is it the case that 1490B03 (designed binder, captured by anti-His mAb) MGVSDVPRDLEVVAATPTSLLISWGHYPLHVRYYRITYGETGGNSPVQEFTVPSRKYTATISGLKPGVDYTITVYAVTYYKEANYREIPISINYRTEIDKPSQHHHHHH has PBMNC pSTAT3 IC50 (nM) reaching or exceeding 0.2 nM?
Found: Not satisfied
